Exercise: for every item that follows, state its recorded switch fluorescence ratio.
Test system: ATP;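 further: ATP exposure 15 min at 22 °C before imaging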
Experiment: switch fluorescence ratio, 500 uM ATP over buffer (Cy3 cluster intensity, sum of 5 cycles each) (fold (ratio)); higher = stronger signal-on switching upon ATP binding; sequences stand for … in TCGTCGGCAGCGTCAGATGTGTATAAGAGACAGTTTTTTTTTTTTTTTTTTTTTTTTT…TC
Conditions: aptamer strand: ATP DNA aptamer (quencher-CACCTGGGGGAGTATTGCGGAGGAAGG + anchor), 100 nM annealed; ATP concentration: 500 uM
Just the number.

Form field switch fluorescence ratio, entry GCGTAGGTAG : 0.964

Form field switch fluorescence ratio, entry TTGGTTTTTA : 0.98

Form field switch fluorescence ratio, entry TGTGAAGTGG : 1.02

Form field switch fluorescence ratio, entry TTTGGAGTT : 1

Form field switch fluorescence ratio, entry TATGAGGATT : 0.975

Form field switch fluorescence ratio, entry TAAGTTGGGT : 0.994

Form field switch fluorescence ratio, entry TTTGAGGGA : 0.995

Form field switch fluorescence ratio, entry TAGTTGGTTT : 0.999

Form field switch fluorescence ratio, entry TATCCTTTGT : 1.22

Form field switch fluorescence ratio, entry AGGGGATGTG : 0.97

Form field switch fluorescence ratio, entry CCATTGCTCG : 1.04

Form field switch fluorescence ratio, entry CGGGCTGGCA : 1

Form field switch fluorescence ratio, entry ACCACGGGGT : 1.02

Form field switch fluorescence ratio, entry AGCAGGAGGA : 1

Form field switch fluorescence ratio, entry AGTCCGGGTT : 0.991

Form field switch fluorescence ratio, entry CAGGGTATTT : 0.981

Form field switch fluorescence ratio, entry GACTGTAAAG : 0.967

Form field switch fluorescence ratio, entry CAGCTAGAGG : 1

Form field switch fluorescence ratio, entry GAAATAATGT : 1.03

Form field switch fluorescence ratio, entry CAGACAGGGG : 1.05

Form field switch fluorescence ratio, entry TTGGGTTTGG : 0.986

Form field switch fluorescence ratio, entry GGTGCAGGTG : 1.74

Form field switch fluorescence ratio, entry GAAAGTATAA : 0.998

Form field switch fluorescence ratio, entry ACATGAGGTG : 1.18

Form field switch fluorescence ratio, entry TAAGCTGTGG : 1.02

Form field switch fluorescence ratio, entry TAAAGGGTAT : 0.988

Form field switch fluorescence ratio, entry AAAGGAGGTC : 1.05

Form field switch fluorescence ratio, entry AGGGGGTCAG : 0.986

Form field switch fluorescence ratio, entry GTTTGCTATT : 0.992

Form field switch fluorescence ratio, entry TTCGTTTTCT : 1

Form field switch fluorescence ratio, entry ATGATTAAGA : 1.02

Form field switch fluorescence ratio, entry TATACTACGG : 1.09

Form field switch fluorescence ratio, entry CAAAGGGGGG : 1.13

Form field switch fluorescence ratio, entry TCAGATAGGG : 0.968

Form field switch fluorescence ratio, entry AGATATTTCG : 1.02

Form field switch fluorescence ratio, entry CGGGGGATCA : 1.01

Form field switch fluorescence ratio, entry TGAGAGGGGC : 0.973

Form field switch fluorescence ratio, entry ATGATTGGAT : 0.996

Form field switch fluorescence ratio, entry AATTTTTTTC : 0.989

Form field switch fluorescence ratio, entry GCCTTGATGT : 1.01

Form field switch fluorescence ratio, entry TGAGCGAAGG : 0.981

Form field switch fluorescence ratio, entry ATCTTGGTTG : 1

Form field switch fluorescence ratio, entry TAAAGGCGCG : 0.985

Form field switch fluorescence ratio, entry CTTCGTGATG : 1.1

Form field switch fluorescence ratio, entry CCCGGTTGAT : 1.05

Form field switch fluorescence ratio, entry TGATTCGGTT : 1.04

Form field switch fluorescence ratio, entry GAGGTGCGGT : 0.975

Form field switch fluorescence ratio, entry TTCGGGATTA : 1

Form field switch fluorescence ratio, entry ATGTTTCAGG : 0.997

Form field switch fluorescence ratio, entry TGCATAGGGG : 0.999

Form field switch fluorescence ratio, entry TAGGTAGTGG : 1.01

Form field switch fluorescence ratio, entry GATCGGAGGG : 1.01

Form field switch fluorescence ratio, entry GGGACGGAAA : 1.11

Form field switch fluorescence ratio, entry ACACCTTTTT : 1.04

Form field switch fluorescence ratio, entry AGGAAAGGGC : 0.983

Form field switch fluorescence ratio, entry TTTGATACGC : 1.04

Form field switch fluorescence ratio, entry CTTGAATGTC : 1.05

Form field switch fluorescence ratio, entry CGTTTTTTTG : 1.01

Form field switch fluorescence ratio, entry TGTTGATA : 0.968

Form field switch fluorescence ratio, entry CTTTTAGAGA : 1.02

Form field switch fluorescence ratio, entry CGAAAACGTG : 0.976

Form field switch fluorescence ratio, entry AGGTGCCAGG : 1.07

###

Exercise: for every item that follows, state its recorded switch fluorescence ratio.
Test system: ATP;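 further: ATP exposure 15 min at 22 °C before imaging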
Test: switch fluorescence ratio, 500 uM ATP over buffer (Cy3 cluster intensity, sum of 5 cycles each) (fold (ratio)); higher = stronger signal-on switching upon ATP binding; sequences stand for … in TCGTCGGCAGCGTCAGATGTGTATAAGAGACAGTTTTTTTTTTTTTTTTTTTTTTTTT…TC
Conditions: aptamer strand: ATP DNA aptamer (quencher-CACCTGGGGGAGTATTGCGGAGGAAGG + anchor), 100 nM annealed; ATP concentration: 500 uM
Just the number.

Form field switch fluorescence ratio, entry GGGTTTTTTG : 1

Form field switch fluorescence ratio, entry ACGAGAACGA : 1.05

Form field switch fluorescence ratio, entry AAGAGGCCGG : 0.986

Form field switch fluorescence ratio, entry CTTATCATGT : 0.981

Form field switch fluorescence ratio, entry TTGGGTTCCT : 1.04

Form field switch fluorescence ratio, entry TTTACTGGCA : 1.05

Form field switch fluorescence ratio, entry TACAGTGAGC : 1.03

Form field switch fluorescence ratio, entry TGGGGGCGGT : 0.996

Form field switch fluorescence ratio, entry TTTAGGCTGC : 1.01

Form field switch fluorescence ratio, entry GGTCCGCATA : 2.82

Form field switch fluorescence ratio, entry CTGGACCTTG : 0.977

Form field switch fluorescence ratio, entry GGAAGTCGTT : 0.994

Form field switch fluorescence ratio, entry TTATTAGTCA : 0.986

###

Test system: ATP;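 further: ATP exposure 15 min at 22 °C before imaging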
Experiment: switch fluorescence ratio, 500 uM ATP over buffer (Cy3 cluster intensity, sum of 5 cycles each) (fold (ratio)); higher = stronger signal-on switching upon ATP binding; sequences stand for … in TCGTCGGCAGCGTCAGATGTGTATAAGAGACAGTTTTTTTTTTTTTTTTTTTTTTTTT…TC
Details: aptamer strand: ATP DNA aptamer (quencher-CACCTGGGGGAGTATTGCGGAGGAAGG + anchor), 100 nM annealed; ATP concentration: 500 uM
Measurement name: switch fluorescence ratio
Just the number.

Form field switch fluorescence ratio, entry TTAAGGGCGC : 1

Form field switch fluorescence ratio, entry AGGATTAGGA : 1.01

Form field switch fluorescence ratio, entry CCAAAGAGGG : 0.993

Form field switch fluorescence ratio, entry CGGTTTAGGA : 0.988

Form field switch fluorescence ratio, entry TGAGTGCTGG : 0.974

Form field switch fluorescence ratio, entry AGCACTCTAT : 1.04

Form field switch fluorescence ratio, entry GATTTAGTAA : 0.976

Form field switch fluorescence ratio, entry GAAATGAATA : 1

Form field switch fluorescence ratio, entry CCGTGCACAT : 2.68

Form field switch fluorescence ratio, entry AGGTTAAGTT : 0.989

Form field switch fluorescence ratio, entry CACGTTGTTT : 0.996

Form field switch fluorescence ratio, entry ACGGTTTAAC : 1.11

Form field switch fluorescence ratio, entry TACCGAAGGG : 0.989

Form field switch fluorescence ratio, entry TTGGAAGCAT : 1.01

Form field switch fluorescence ratio, entry TTTTGATGCT : 0.998

Form field switch fluorescence ratio, entry AGGGGCTGGG : 0.99

Form field switch fluorescence ratio, entry AACCCGCCTT : 1.07

Form field switch fluorescence ratio, entry TGGGGTCGTC : 1.04

Form field switch fluorescence ratio, entry AATTGTTATT : 0.992

Form field switch fluorescence ratio, entry CAATGTCACC : 1.06

Form field switch fluorescence ratio, entry AGAATGGGGA : 1.02

Form field switch fluorescence ratio, entry GAGTAGGAGG : 0.974

Form field switch fluorescence ratio, entry ATCGGGAGGA : 1

Form field switch fluorescence ratio, entry GTCTGAGGCT : 0.985

Form field switch fluorescence ratio, entry AAGGGCTCGG : 1.07

Form field switch fluorescence ratio, entry CTGAGGTTAT : 1.04

Form field switch fluorescence ratio, entry TGAATGTATT : 1.03

Form field switch fluorescence ratio, entry TGGGTGGTTT : 1.02

Form field switch fluorescence ratio, entry GCGACCATCC : 1.8

Form field switch fluorescence ratio, entry TCAGGGGCCT : 1.03

Form field switch fluorescence ratio, entry GGGTTACGAT : 0.994
